# PROTOCOL_NOTES: in vitro
# Format: in vitro ADME, Desulfovibrio vulgaris
# TEST_PARAMETERS: cells or culture medium
Where a SMILES comes first, the peptide text is derived from it.
PROPERTY_MEASURED: remaining at 48 h, 1 mg/mL (%)
Answers are plain numbers, in %.

# COMPOUND, MEASUREMENT_UNIT, remaining at 48 h, 1 mg/mL
rows = [
    ("CC(C)C[C@H](NC(=O)[C@H](CC(C)C)NC(=O)[C@H](CCCCN)NC(=O)[C@H](CCCCN)NC(=O)[C@H](CC(C)C)NC(=O)[C@H](Cc1c[nH]c2ccccc12)NC(=O)[C@H](CCCCN)NC(=O)[C@H](Cc1c[nH]c2ccccc12)NC(=O)[C@H](CC(C)C)NC(=O)[C@H](CCCCN)NC(=O)[C@H](CCCCN)NC(=O)CCCCCN)C(N)=O [Peptide P3.2.] (HELM PEPTIDE1{[NCCCCCC(=O)[*:2]].K.K.L.W.K.W.L.K.K.L.L.[am]}$$$$V2.0)", "%", 99),
]

Now for the compound whose remaining at 48 h, 1 mg/mL we want.
INPUT: Would you mind telling me what remaining at 48 h, 1 mg/mL value was observed for CC[C@H](C)[C@H](NC(=O)[C@H](CCCNC(=N)N)NC(=O)[C@H](CS)NC(=O)[C@H](CC(C)C)NC(=O)[C@@H](N)CCCNC(=N)N)C(=O)N[C@H](C(=O)N[C@H](C(=O)N[C@H](C(=O)N[C@@H](CCCNC(=N)N)C(=O)N[C@H](C(=O)N[C@@H](CS)C(=O)N[C@@H](CCCNC(=N)N)C(=O)O)C(C)C)[C@@H](C)CC)C(C)C)C(C)C [Bactenecin] (H-RLCRIVVIRVCR-OH; N-terminus and C-terminus assumed) ?
OUTPUT: 41
